Here the recorded EPSA is given for each entry.
Assay Procedure: EPSA
Assay type: physicochemical
Condition Context: EPSA
Positions of bridges follow the written chain, without caps; N, C: chain ends. Non-standard residues stand in square brackets, D forms with d. Residues, ends and D or L forms follow the SMILES beside them. Lys(N3) = [N-]=[N+]=NCCCC[C@H](N)C(=O)O; R8 = C=CCCCCCC[C@@](C)(N)C(=O)O; Cba = N[C@@H](CC1CCC1)C(=O)O; S5 = C=CCCC[C@](C)(N)C(=O)O; βAla = NCCC(=O)O
State the answer as a number, implicitly in A^2.

# annotated cases, reported EPSA shown
- Compound: "CC(=O)N[C@@H](CS)C(=O)N[C@@H](CCCCN=[N+]=[N-])C(=O)NCCC(=O)N[C@@H](C)C(=O)N[C@H](C(=O)N[C@@H](Cc1ccccc1)C(=O)N[C@]1(C)CCCCCCC=CCCC[C@@](C)(C(=O)N[C@@H](C)C(=O)N[C@@H](C)C(=O)N[C@@H](C)C(N)=O)NC(=O)[C@H](CC2CCC2)NC(=O)[C@H](C)NC(=O)[C@H](C)NC(=O)[C@H](Cc2c[nH]c3ccccc23)NC(=O)[C@H](Cc2ccc(O)cc2)NC(=O)[C@H](C)NC1=O)[C@@H](C)O [MP-987] (Ac-C[Lys(N3)][βAla]ATF[R8]AYWAA[Cba][S5]AAA-NH2; staple 7-14)"
  EPSA [A^2]: 180
- Compound: "CC(=O)N[C@@H](CC(C)C)C(=O)N[C@H](C(=O)N[C@@H](Cc1ccccc1)C(=O)N[C@]1(C)CCCCCCC=CCCC[C@@](C)(C(=O)N[C@@H](CO)C(=O)N[C@@H](C)C(=O)N[C@@H](C)C(N)=O)NC(=O)[C@H](CC(C)C)NC(=O)[C@H](CCC(N)=O)NC(=O)[C@H](C)NC(=O)[C@H](Cc2c[nH]c3ccccc23)NC(=O)[C@H](Cc2ccc(O)cc2)NC(=O)[C@H](CCC(=O)O)NC1=O)[C@@H](C)O [MP-154]"
  EPSA [A^2]: 199
- Compound: "CC(=O)N[C@@H](CCCCN=[N+]=[N-])C(=O)NCCC(=O)N[C@@H](CC(C)C)C(=O)N[C@H](C(=O)N[C@@H](CCC(=O)O)C(=O)N[C@]1(C)CCCCCCC=CCCC[C@@](C)(C(=O)N[C@@H](CO)C(=O)N[C@@H](C)C(=O)N[C@@H](C)C(N)=O)NC(=O)[C@H](CC2CCC2)NC(=O)[C@H](CCC(N)=O)NC(=O)[C@H](C)NC(=O)[C@H](Cc2c[nH]c3ccccc23)NC(=O)[C@H](Cc2ccc(O)cc2)NC(=O)[C@H](Cc2ccccc2)NC1=O)[C@@H](C)O [MP-123] (Ac-[Lys(N3)][βAla]LTE[R8]FYWAQ[Cba][S5]SAA-NH2; staple 6-13)"
  EPSA [A^2]: 197

Challenge: Using the record for CC(=O)N[C@@H](CCCCN=[N+]=[N-])C(=O)NCCC(=O)N[C@@H](CC(C)C)C(=O)N[C@H](C(=O)N[C@@H](Cc1ccccc1)C(=O)N[C@]1(C)CCCCC#CC#CCCC[C@@](C)(C(=O)N[C@@H](CO)C(=O)N[C@@H](C)C(=O)N[C@@H](C)C(N)=O)NC(=O)[C@H](CC2CCC2)NC(=O)[C@H](CCC(N)=O)NC(=O)[C@H](C)NC(=O)[C@H](Cc2c[nH]c3ccccc23)NC(=O)[C@H](Cc2ccc(O)cc2)NC(=O)[C@H](CCC(=O)O)NC1=O)[C@@H](C)O [MP-806] , report its EPSA.
Response given: 203

###

Assay Procedure: Lactate dehydrogenase (LDH) release assay
Format: cell-based
Condition Context: LDH: Cytotoxicity assay: EC50
Value Type: EC50

Challenge: Suppose we examine the molecule CC(=O)N[C@@H](CCCCN=[N+]=[N-])C(=O)NCCC(=O)N[C@@H](CC(C)C)C(=O)N[C@H](C(=O)N[C@@H](Cc1ccccc1)C(=O)N[C@]1(C)CCCCCCC=CCCC[C@@](C)(C(=O)N[C@@H](CO)C(=O)N[C@H](C)C(=O)N[C@@H](C)C(N)=O)NC(=O)[C@H](CC2CCC2)NC(=O)[C@H](CCC(N)=O)NC(=O)[C@H](C)NC(=O)[C@H](Cc2c[nH]c3cc(Cl)ccc23)NC(=O)[C@H](Cc2ccc(O)cc2)NC(=O)[C@H](CCC(=O)O)NC1=O)[C@@H](C)O [MP-494] ; what EC50 value has been reported?
Response given: > 50.6 µM

###

Assay Procedure: Experimental LogD (partition coefficient)
Condition Context: not stated, Partition Coeff LogD
Positions of bridges follow the written chain, without caps; N, C: chain ends. Non-standard residues stand in square brackets, D forms with d. Residues, ends and D or L forms follow the SMILES beside them. Lys(N3) = [N-]=[N+]=NCCCC[C@H](N)C(=O)O; R8 = C=CCCCCCC[C@@](C)(N)C(=O)O; Cba = N[C@@H](CC1CCC1)C(=O)O; S5 = C=CCCC[C@](C)(N)C(=O)O; βAla = NCCC(=O)O
Value Type: logD
Answer with a bare number; do not write a unit.

Example results:
- Molecule: "CC(=O)N[C@@H](Cc1ccccc1)C(=O)N[C@]1(C)CCCCCCC=CCCC[C@@](C)(C(=O)N[C@@H](CO)C(=O)N[C@@H](C)C(=O)N[C@@H](C)C(N)=O)NC(=O)[C@H](CC2CCC2)NC(=O)[C@H](CC(C)C)NC(=O)[C@H](CCC(N)=O)NC(=O)[C@H](Cc2c[nH]c3ccccc23)NC(=O)[C@H](Cc2ccc(O)cc2)NC(=O)[C@H](CCC(=O)O)NC1=O [MP-1202] (Ac-F[R8]EYWQL[Cba][S5]SAA-NH2; staple 2-9)"
  logD: 2.59
- Molecule: "CC(=O)N[C@@H](CC(C)C)C(=O)N[C@H](C(=O)N[C@@H](Cc1ccccc1)C(=O)NC(C)(C)C(=O)N[C@@H](CCC(=O)O)C(=O)N[C@@H](Cc1ccc(O)cc1)C(=O)N[C@@H](Cc1c[nH]c2ccccc12)C(=O)N[C@@H](CCC(N)=O)C(=O)N[C@@H](CC(C)C)C(=O)N[C@@H](CC1CCC1)C(=O)NC(C)(C)C(=O)N[C@@H](CO)C(=O)N[C@@H](C)C(=O)N[C@@H](C)C(N)=O)[C@@H](C)O [MP-7189]"
  logD: 2.12
- Molecule: "CC(C)C[C@@H]1NC(=O)[C@H](C)NC(=O)[C@H](Cc2c[nH]c3ccccc23)NC(=O)[C@H](Cc2ccc(O)cc2)NC(=O)[C@H](CCC(=O)O)NC(=O)[C@](C)(NC(=O)[C@H](Cc2ccccc2)NC(=O)[C@H](CO)NC(=O)[C@@H](NC(=O)[C@H](CO)NC(=O)CNC(=O)[C@H](CO)NC(=O)[C@H](CCCCN=[N+]=[N-])NC(=O)[C@@H](N)CCC(=O)O)[C@@H](C)O)CCCCCCC=CCCC[C@@](C)(C(N)=O)NC(=O)[C@H](CC(C)C)NC1=O [MP-0180]"
  logD: 2.21
- Molecule: "CC(=O)N[C@@H](CCCCN=[N+]=[N-])C(=O)NCCC(=O)N[C@@H](CC(C)C)C(=O)N[C@H](C(=O)N[C@@H](Cc1ccccc1)C(=O)N[C@]1(C)CCCCCCC=CCCC[C@@](C)(C(=O)N[C@@H](CO)C(=O)N[C@@H](C)C(=O)N[C@@H](C)C(N)=O)NC(=O)[C@H](CC2CCC2)NC(=O)[C@H](CCC(N)=O)NC(=O)C(C)(C)NC(=O)[C@H](Cc2c[nH]c3ccccc23)NC(=O)[C@H](Cc2ccc(O)cc2)NC(=O)[C@H](CCC(=O)O)NC1=O)[C@@H](C)O [MP-170]"
  logD: 2.85
- Molecule: "CC(=O)N[C@@H](C)C(=O)N[C@@H](C)C(=O)N[C@@H](Cc1ccccc1)C(=O)N[C@]1(C)CCCCCCC=CCCC[C@@](C)(C(=O)N[C@@H](CO)C(=O)N[C@@H](C)C(=O)N[C@@H](C)C(N)=O)NC(=O)[C@H](CC2CCC2)NC(=O)[C@H](C)NC(=O)[C@H](C)NC(=O)[C@H](Cc2c[nH]c3ccccc23)NC(=O)[C@H](Cc2ccc(O)cc2)NC(=O)[C@H](CCC(=O)O)NC1=O [MP-1207] (Ac-AAF[R8]EYWAA[Cba][S5]SAA-NH2; staple 4-11)"
  logD: 2.91
- Molecule: "CC(C)C[C@@H]1NC(=O)[C@H](C)NC(=O)[C@H](Cc2c[nH]c3ccccc23)NC(=O)[C@H](Cc2ccc(O)cc2)NC(=O)[C@H](CCC(=O)O)NC(=O)[C@](C)(NC(=O)[C@H](Cc2ccccc2)NC(=O)[C@H](CO)NC(=O)[C@@H](NC(=O)[C@H](CO)NC(=O)CNC(=O)[C@@H](N)CCCCN=[N+]=[N-])[C@@H](C)O)CCCCCCC=CCCC[C@@](C)(C(N)=O)NC(=O)[C@H](CC(C)C)NC1=O [MP-0179]"
  logD: 2.57

Challenge: Field request: logD | item: CC(=O)N[C@@H](CCCCN=[N+]=[N-])C(=O)NCCC(=O)N[C@@H](CC(C)C)C(=O)N[C@H](C(=O)N[C@@H](Cc1ccccc1)C(=O)N[C@]1(C)CCCCCCC=CCCC[C@@](C)(C(=O)N[C@@H](CO)C(=O)N[C@@H](C)C(=O)N[C@@H](C)C(N)=O)NC(=O)[C@H](CC2CCC2)NC(=O)[C@H](CCC(N)=O)NC(=O)[C@H](C)NC(=O)[C@H](Cc2c[nH]c3ccccc23)NC(=O)[C@H](Cc2ccc(O)cc2)NC(=O)[C@@H]2CCCN2C1=O)[C@@H](C)O [MP-8834]
Response given: 3.03

Challenge: Recorded logD for CC(=O)N[C@@H](CCCCN=[N+]=[N-])C(=O)NCC(=O)N[C@@H](CO)C(=O)NCC(=O)N[C@H](C(=O)N[C@@H](CO)C(=O)N[C@@H](Cc1ccccc1)C(=O)N[C@]1(C)CCCCCCC=CCCC[C@@](C)(C(=O)N[C@@H](CCC(=O)O)C(N)=O)NC(=O)[C@H](CC(C)C)NC(=O)[C@H](CC(C)C)NC(=O)[C@H](C)NC(=O)[C@H](Cc2c[nH]c3ccccc23)NC(=O)[C@H](Cc2ccc(O)cc2)NC(=O)[C@H](CCC(=O)O)NC1=O)[C@@H](C)O [MP-010] , please?
Response given: 2.07

Challenge: If you can, please state the reported logD value of CC(=O)N[C@@H](CCCCN=[N+]=[N-])C(=O)NCCC(=O)N[C@@H](CC(C)C)C(=O)N[C@H](C(=O)N[C@@H](Cc1ccccc1)C(=O)N[C@]1(C)CCCCCCC=CCCC[C@@](C)(C(=O)N[C@@H](CO)C(=O)N[C@@H](C)C(=O)N[C@@H](C)C(N)=O)NC(=O)[C@H](CC2CCC2)NC(=O)[C@H](C)NC(=O)[C@H](CCC(N)=O)NC(=O)[C@H](Cc2c[nH]c3ccccc23)NC(=O)[C@H](Cc2ccc(O)cc2)NC(=O)[C@H](CCC(=O)O)NC1=O)[C@@H](C)O [MP-4203] (Ac-[Lys(N3)][βAla]LTF[R8]EYWQA[Cba][S5]SAA-NH2; staple 6-13) .
Response given: 2.71

The reported numbers originate from paper PMC10786919.
